system: Plasmodium berghei; assay: Screen against P. berghei liver stage (PbLuc), transformed with Luciferase, at 10uM; assay type: functional, HepG2; conditions: tested at 10 uM
Out of some 69,000 compounds screened, about 8,600 (12%) showed an effect of 50% or more. For the sample, strong results were picked, then their nearest neighbours and some compounds at random.
Label scheme, based on INHIBITION: group A = under -10%, group B = from -10% up to 20%, group C = 20% and over

> print(dat)
                                    molecule  label.value
 1  Cc1nc2c(c(N[C@H](C(N)=O)C(C)C)n1)Cc1ccccc1OC2      group A
 2  Cc1nc2c(c(NCCNC(=O)C(C)C)n1)Cc1ccccc1OC2      group B
 3  COc1ccccc1NC(=O)NC1(c2noc(CN(C)C)n2)CCCC1      group C
 4  N#Cc1ccc(CN2CCCCC2Cn2cccn2)cc1 (stereo unspecified)      group A
 5  Cc1nc2c(c(NC(C)c3nnn[nH]3)n1)Cc1ccccc1OC2 (stereo unspecified)      group A
 6  Cc1nc2c(c(N[C@@H](CO)C(N)=O)n1)Cc1ccccc1OC2      group A
 7  Nc1nccc(C2CCCN(CC3CC3)C2)n1 (stereo unspecified)      group C
 8  CN(CC1(CO)CCCC1)c1nc2c(c(=O)[nH]1)Cc1ccccc1OC2      group C
 9  CN(CC1(CO)CCC1)c1nc2c(c(=O)[nH]1)Cc1ccccc1OC2      group C
10   Cc1nc2c(c(NCC(=O)NC(C)C)n1)Cc1ccccc1OC2      group B

* * *

system: Plasmodium berghei; test: Screen against P. berghei liver stage (PbLuc), transformed with Luciferase, at 10uM; format: functional, HepG2; conditions: tested at 10 uM
The campaign covered roughly 69,000 compounds. About 8,600 (12%) showed an effect of 50% or more. For the sample, strong results were picked, then their nearest neighbours and some compounds at random.
Label scheme, based on INHIBITION: label 0 = under 10%, label 1 = from 10% up to 40%, label 2 = 40% and over

> print(dat)
                                    compound  label.value
 1  Cc1nc(C)n(CC2CCCN(CC(=O)Nc3nncs3)C2)n1 (stereo not given)      label 1
 2  O=C(CCc1cc2n(n1)CCCN(C(=O)[C@H]1CCCO1)C2)NC1CC1      label 1
 3  CCNc1ncc(C(=O)NC2CCC(n3cnnc3)CC2)cn1 (stereo not given)      label 1
 4  CCn1c(C(=O)N2CCCN(CC(N)=O)CC2)cc2ccccc21      label 0
 5  CC(Cc1cncs1)Nc1ncnc2cccc(F)c12 (stereo not given)      label 2
 6    N#Cc1ccsc1NC(=O)CCN1CCn2c(nnc2C2CC2)C1      label 0
 7  O=C(NC1CCC(O)CC1)c1cnc2c(cnn2C2CCCC2)c1 (stereo not given)      label 1
 8  CCN(CC)c1ncc(Cl)c(C(=O)NC2CCC(O)CC2)n1 (stereo not given)      label 2
 9  Nc1nnc(C2CC(=O)N(c3ccccc3)C2)s1 (stereo not given)      label 2
10  Cc1cnc(C(=O)NC(CN2CCCC2=O)c2ccccc2)cn1 (stereo not given)      label 0
11  Fc1ccc(C2(CNCCc3cccs3)CCOC2)cc1 (stereo not given)      label 2
12  Cc1ccc(C(O)CN(C)Cc2cnn(C)c2)cc1C (stereo not given)      label 1
13  CCc1nnc(N2C[C@@H](NC(C)=O)[C@H](c3ccc(C)o3)C2)s1      label 2
14  CC(=O)N[C@@H]1CN(c2nc(C(N)=O)cs2)C[C@H]1c1ccc(C)o1      label 1
15             COc1ccc(CN2CC(n3cccn3)C2)cc1F      label 0
16  CC[C@H]1CN(C(=O)c2cnc(N3CCN(C)CC3)nc2C)CC[C@@]1(C)O      label 0
17  COC(=O)c1ccc(OC)c(CN2CCN(CC(C)C)C(=O)C2C)c1 (stereo not given)      label 0
18          CCN(CC)c1ncc(Cl)c(C(=O)NC2CC2)n1      label 2
19  CC(Cc1cccnc1)Nc1ncnc2cccc(F)c12 (stereo not given)      label 0
20          COCCN1CCCn2cnc(CNC(=O)N(C)C)c2C1      label 1
21  COc1ccc(C)cc1CN1CCN(Cc2nccn2C)C(C)C1 (stereo not given)      label 0
22  Fc1ccc(C2(CNCC(F)F)CCOC2)cc1 (stereo not given)      label 1
23  Cc1cn2c(n1)CCC(NC(=O)c1nc(C)ncc1Cl)C2 (stereo not given)      label 1
24  O=C(O)c1cccc(CN2CCCC(c3ccn[nH]3)C2)c1 (stereo not given)      label 1
25  COc1ccc(C)cc1CN1CCn2cccc2C1C (stereo not given)      label 2

* * *

In this section, each of the molecules is paired with its reported INHIBITION.
system: Plasmodium berghei; assay: Screen against P. berghei liver stage (PbLuc), transformed with Luciferase, at 10uM; assay type: functional, HepG2; conditions: tested at 10 uM
The campaign covered roughly 69,000 compounds. About 8,600 (12%) showed an effect of 50% or more. Many of the other results were omitted from the sample, so strong results are more common in it than they were.
property label: INHIBITION (%)

> print(dat)
                                    molecule  readout.number
 1  Cc1nc(C)n(CC2CCCN2CC(=O)Nc2cc(C)on2)n1 (stereo not drawn)            40.2
 2  Nc1nc(CCC(=O)N2CCOC(CC3CCCCC3)C2)cs1 (stereo not drawn)            85.1
 3   CC1CCN(CCCNC(=O)Nc2cc3c(cc2Br)OCCO3)CC1            63.3
 4  Cc1cc(C(=O)N2C[C@@H]3OCCN(CCN4CCCC4)[C@@H]3C2)c(C)o1            32.2
 5      Cc1cc(=O)n2nc(Oc3ccc(Cl)c(C)c3)sc2n1            16.3
 6   O=C(c1cncs1)N1CCc2[nH]nc(Nc3ccccc3)c2C1           20.49
 7  Cc1cc(C)n(C2CCCN(C(=O)c3cn4cccnc4n3)C2)n1 (stereo not drawn)            31.9
 8  O=C(c1ccsc1)N1C[C@@H]2OCCN(CCN3CCCC3)[C@@H]2C1            82.3
 9  NC(=O)c1csc(N2C[C@@H](CN3CCOCC3)[C@@H](CO)C2)n1          20.645
10  Cc1cc(C(=O)N2CCN(S(C)(=O)=O)[C@@H](C)C2)c(F)cc1F           -14.2
11  O=C(NC1CC2(CCN(CCO)CC2)c2ccccc21)c1ccsc1 (stereo not drawn)            27.5
12  CN(C)C1CCCN(C(=O)CCc2csc(N)n2)CC1 (stereo not drawn)            33.9
13  N[C@H]1CN(C(=O)CCc2ccccn2)C[C@@H]1c1ccccc1            37.6
14  O=C(c1ccco1)N1C[C@@H]2OCCN(CCN3CCCC3)[C@@H]2C1            23.3
15  CN(C)CCN1CCO[C@H]2CN(C(=O)c3ccsc3)C[C@H]21            6.67
16  COCCN1CCC2(CC1)CC(NCc1cncn1C)c1ccccc12 (stereo not drawn)            54.1
17  CCc1cnc(N2C[C@@H]3C[C@H](C(=O)NC4CCC4)[C@H](C2)O3)nc1            5.63
18  CCCC(=O)N1CCN(CC(O)COCC)CC1 (stereo not drawn)           -2.53
19  CCN1CCC2(CC1)CC(NCc1cccc(C)n1)c1ccccc1O2 (stereo not drawn)           -4.88
20              CC1CCN(CCCNC(=O)C2CCCCC2)CC1           -32.3
21  Cn1cncc1CNC1CC2(CCN(S(C)(=O)=O)CC2)c2ccccc21 (stereo not drawn)            23.1
22  O=C(Nc1cc2c(cc1Br)OCCO2)NC1CCS(=O)(=O)C1 (stereo not drawn)            11.8
23  O=C(Nc1ccccc1)[C@H]1C[C@H]2CN(S(=O)(=O)c3ccccc3)C[C@@H]1O2            5.96

* * *

test system: Plasmodium berghei; test: Screen against P. berghei liver stage (PbLuc), transformed with Luciferase, at 10uM; assay type: functional, HepG2; conditions: tested at 10 uM
Screen size: about 69,000 compounds; about 8,600 (12%) showed an effect of 50% or more. Shown is part of a subset that was picked to be rich in strong results.
property label: INHIBITION

> print(dat)
                                    compound  result
 1  C[C@@H]1CN(c2nc(O)cc(Cc3ccccc3F)n2)C[C@H](C)O1   15.5%
 2  Cc1c(CCC(=O)N2CCCC2c2ccnc(N(C)C)c2)cnn1C (stereo unspecified)     23%
 3   Cc1cnc(C(=O)N(CCN(C)C)Cc2ccc(Cl)cc2)cn1   12.2%
 4  CC(C)NC(=O)C(NC(=O)N1CCN(c2ccc(Cl)cc2)CC1)C(C)C (stereo unspecified)  -9.39%
 5  CCC1CN(CC(=O)NCCN2CCCCC2)c2ccccc2S1 (stereo unspecified)   9.57%
 6  CN(C)CCN(Cc1cccc(C(F)(F)F)c1)C(=O)c1cc[nH]n1   22.4%
 7    CN(C)CCN(Cc1ccc(Cl)cc1)C(=O)c1cc[nH]n1     10%
 8  O=C(N1CCCO1)[C@@]12CCO[C@@H]1CCN(Cc1ccccc1)C2  -10.4%
 9   CC(C)c1nc(CS(=O)(=O)Cc2noc(C3CC3)n2)cs1   47.6%
10  CC(C)NC(=O)[C@H](C)NC(=O)N1CCN(c2ccc(Cl)cc2)CC1   38.1%
11      CN(C)CCN(Cc1ccc(Cl)cc1)C(=O)c1ccncc1   10.6%
